All figures here come from ChEMBL document CHEMBL1201862.

- Tested on: HCT-15
assay-readout: GI50

Example molecules with recorded GI50:
Incoming: Name the value of GI50 reported for NNS(=O)(=O)c1ccc(/C=C2\NC(=O)NC2=O)cc1 when tested on HCT-15.
Outgoing: > 100 µM

Incoming: Name the value of GI50 reported for Cc1nc(SCC(=O)Nc2ccccc2)c2sc(=S)n(-c3ccccc3)c2n1 when tested on HCT-15.
Outgoing: > 10 µM

Incoming: Name the value of GI50 reported for CC[C@H]1C=CCC[C@@]2(C[C@@H]3CC[C@@H]4[C@H](C(=O)OCCCCCCCCCCCCCCCC(=O)N(CCCN)C[C@@H](O)CCN)[C@]5(CCC[C@@H](C)O5)NC(=[N+]34)N2)O1 when tested on HCT-15.
Outgoing: 0.41 µM

Incoming: Name the value of GI50 reported for CCOC(=O)CC[C@H](NC(=O)c1nc[nH]c1[N+](=O)[O-])C(=O)OCC when tested on HCT-15.
Outgoing: > 100 µM

Incoming: Name the value of GI50 reported for CC(=O)NC(CSC1=C2NC(=O)\C=C/C=C\C=C/C(C)C(O)CC(=O)/C(C)=C\CC(O)/C=C\C(C)C(O)C(C)C=C(C)C(=O)c3c(O)c(C)cc(c3C1=O)C2=O)C(=O)O (stereo not drawn) when tested on HCT-15.
Outgoing: > 100 µM

Working through the 3 molecules below one at a time, give GI50 for each.
1. O=S(=O)(/N=S(/Nc1ccccc1)C(Cl)Cl)c1ccccc1 (stereo not drawn)
2. COc1ccc(-c2nc(N)c(C#N)c3c2CCS(=O)(=O)c2ccc(C)cc2-3)cc1OC
3. COc1cc(/C=C/c2ccc(OC)c(O)c2)cc(OC)c1

Outgoing:
1: > 100 µM; 2: 16.1 µM; 3: 3.94 µM

---

- Tested on: SR
- method-summary: NCI tumour cell line growth inhibition, 48 h
Active and inactive are the calls of the source. Cut-off read from the data, not from the text of the source: active = GI50 up to about 1.1 µM and inactive = higher.
Your response should consist of one outcome taken from active, inactive

Incoming: Could you check what this test reported for COC(=O)C1=C(C)NC(C)=C(C(=O)OC)C1c1ccc(NO)cc1 ?
Outgoing: inactive

Incoming: Could you check what this test reported for O=C(c1ccccc1)c1cc[n+](C2=C([N-]S(=O)(=O)c3ccccc3)C(=O)c3ccccc3C2=O)cc1 ?
Outgoing: inactive

Incoming: Could you check what this test reported for C[N+](C)(C)CC(=O)N/N=C/c1ccncc1 ?
Outgoing: inactive

Others:
Incoming: Could you check what this test reported for CN1C(=O)c2c(c3c4ccccc4n(C4OC(CO)C(O)C(O)C4O)c3c3[nH]c4ccccc4c23)C1=O (centres undefined) ?
Outgoing: active

---

- Tested on: SK-MEL-28
- method-summary: NCI tumour cell line growth inhibition, 48 h
The source made the active and inactive calls. No stated cut-off is given here; in the data, active = GI50 up to about 1.1 µM and inactive = higher.
Could you please report measured GI50 for the items listed next?

Incoming: Give GI50 for the following compound: CC1=C(C(=O)CC(=O)C(=O)Nc2ccccc2C)Sc2ccccc2N1
Outgoing: > 100 µM (inactive)

Incoming: Give GI50 for the following compound: COc1ccc(CC(C)N)cc1 (stereo unspecified)
Outgoing: > 100 µM (inactive)

Incoming: Give GI50 for the following compound: Clc1ccc(-c2nnc(-c3c(Cl)c(Cl)c(Cl)c(Cl)c3-c3nc4ccccc4[nH]3)o2)cc1
Outgoing: > 100 µM (inactive)

Incoming: Give GI50 for the following compound: CN1C(=O)c2ccccc2NC(=O)c2cnn(C)c21
Outgoing: > 100 µM (inactive)

Incoming: Give GI50 for the following compound: O=C(O)[C@H]1NC[C@H]2C(Br)=NO[C@@H]12
Outgoing: > 100 µM (inactive)

Incoming: Give GI50 for the following compound: O=c1c2cc(Cl)ccc2n2nnc3ccc(NCCNCCO)c1c32
Outgoing: 1.79 µM (inactive)

Incoming: Give GI50 for the following compound: c1ccc2c3nc(C4CCCC4)nc-3c(NC3CCCC3)[nH]c2c1
Outgoing: 13 µM (inactive)

Incoming: Give GI50 for the following compound: CCN(CC)C(=S)SS(=O)(=O)c1ccc(Cl)cc1
Outgoing: 17.9 µM (inactive)

Incoming: Give GI50 for the following compound: CC1=CCC[C@H]2[C@](C)(CC3=CC(=O)C4SCCSC4C3=O)[C@@H](C)CC[C@]12C (stereo partly specified)
Outgoing: 18 µM (inactive)

Incoming: Give GI50 for the following compound: CN(C)c1n/c(=N/Cc2ccco2)ss1
Outgoing: 11.6 µM (inactive)

Others:
Incoming: Give GI50 for the following compound: CC(C)C1C(=O)N2CCCC2C2(O)OC(NC(=O)C3C=C4c5cccc6[nH]cc(c56)CC4N(C)C3)(C(C)C)C(=O)N12 (stereo unspecified)
Outgoing: 25.5 µM (inactive)
